Where these numbers come from: patent US20010034039A1

- Test system: oceanic luminescent bacterium (Vibrio sp. Isolate)
- PROTOCOL DESCRIPTION: microbe, parasite or virus in culture
- Type: cell-based
- EXPERIMENTAL CONTEXT: 10 min, read-out: EC50 (decrease luminescence by 50%)
PROPERTY LABEL: EC50 (µg/mL)

[[record]]
compound = "Cc1ccccc1 [Toluene]"
target_desc = "oceanic luminescent bacterium (Vibrio sp. Isolate)"
property_label = "EC50"
measurement_units = "µg/mL"
observed_measurement = 120

[[record]]
compound = "c1ccccc1 [Benzene]"
target_desc = "oceanic luminescent bacterium (Vibrio sp. Isolate)"
property_label = "EC50"
measurement_units = "µg/mL"
observed_measurement = 607

[[record]]
compound = "Cc1ccc(C)cc1 [p-xylene]"
target_desc = "oceanic luminescent bacterium (Vibrio sp. Isolate)"
property_label = "EC50"
measurement_units = "µg/mL"
observed_measurement = 105

[[record]]
compound = "Oc1ccccc1 [Phenol]"
target_desc = "oceanic luminescent bacterium (Vibrio sp. Isolate)"
property_label = "EC50"
measurement_units = "µg/mL"
observed_measurement = 105

